// pIC50 lookup, one value per entry
- Target Entity: BACE1 enzyme (Homo sapiens)
- Construct: The HEK293-9B.A1 cell line, which overexpresses the BACE1 enzyme, was derived from HEK293 cells; endogenous in cells; washed membrane pellet / cell homogenate
- Sequence (P56817 46-501): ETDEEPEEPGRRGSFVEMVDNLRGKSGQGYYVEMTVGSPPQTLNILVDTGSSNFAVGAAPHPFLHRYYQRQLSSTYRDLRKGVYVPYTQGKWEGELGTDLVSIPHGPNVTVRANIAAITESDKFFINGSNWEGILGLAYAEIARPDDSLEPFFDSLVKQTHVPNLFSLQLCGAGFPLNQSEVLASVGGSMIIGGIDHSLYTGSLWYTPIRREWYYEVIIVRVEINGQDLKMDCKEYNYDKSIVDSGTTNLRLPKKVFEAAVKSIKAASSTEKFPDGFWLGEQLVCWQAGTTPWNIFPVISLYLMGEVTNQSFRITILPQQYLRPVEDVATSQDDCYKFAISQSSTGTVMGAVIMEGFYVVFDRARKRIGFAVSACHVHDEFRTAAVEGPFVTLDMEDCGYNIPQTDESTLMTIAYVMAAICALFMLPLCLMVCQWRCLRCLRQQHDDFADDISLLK
- Assay: Radioligand displacement assay with a radiolabeled BACE inhibitor on HEK293-9B.A1 cell homogenate
- Format: binding
- Reported Conditions: HEK293-9B.A1 cell homogenate overexpressing BACE1, 1 nM radioligand, pH 5.0, 1.5 hr at 25° C., read-out: Activity Rating (activity based on IC50 values)
pIC50: −log10 of the molar value.

Compound: COc1ccc2[nH]cc(CC(=O)/N=C(\N)NCc3cc(Cl)c(NC(C)=O)c(Cl)c3)c2c1
Target Entity: BACE1 enzyme (Homo sapiens)
pIC50: 6.00 to 7.00

Compound: CC(=O)Nc1c(Cl)cc(CN/C(N)=N/C(=O)Cc2c(C)[nH]c3ccc(F)cc23)cc1Cl
Target Entity: BACE1 enzyme (Homo sapiens)
pIC50: 6.00 to 7.00

Compound: CC(C(=O)/N=C(\N)NCc1cc(Cl)c(N)c(Cl)c1)c1c[nH]c2ccccc12 (stereo not drawn)
Target Entity: BACE1 enzyme (Homo sapiens)
pIC50: < 6.00

Compound: N/C(=N\C(=O)Cc1c[nH]c2ccc(F)cc12)NCc1cc(Cl)cc(Cl)c1
Target Entity: BACE1 enzyme (Homo sapiens)
pIC50: < 6.00

Compound: COc1ccc2[nH]cc(CC(=O)/N=C(\N)NCc3cc(C)c(NC(C)=O)c(Cl)c3)c2c1
Target Entity: BACE1 enzyme (Homo sapiens)
pIC50: 6.00 to 7.00

Consider now this further compound.
What value of pIC50 has been reported for the following compound? CC(=O)Nc1c(Cl)cc(CN/C(N)=N/C(=O)Cc2c[nH]c3ccc(C#N)cc23)cc1Cl
> 7.00
